# Experiment summary: qHTS Assay for Foot and Mouth Disease Virus Antivirals: Primary Screen against the MLPCN compound library; also: nearly all actives have a fitted effect of over 55% in size
# Condition context: FMDV antiviral cell-based qHTS; series mostly up to 57.9 µM
The campaign covered roughly 410,000 compounds. About 2,000 (0.49%) were called active. Inconclusive results (about 8%) are left out. Calls follow the shape of the full dose curve; tested in HEK293 reporter line. This excerpt belongs to a sample that is enriched for actives.
Field 'call' accepts label 1 = active, label 0 = inactive

Some solved cases for reference:
Compound	Assigned category
CCN(CC)c1ccc2c(Cl)c(Br)c(=O)oc2c1	label 1
Cc1ccc2c(c1)-c1c(cnn1CC(=O)N(Cc1ccco1)C1CCCCC1)CO2	label 0
CC(Sc1nc2ccccc2c(=O)n1CC1CCCO1)C(=O)N(C)c1ccccc1 (stereo not given)	label 0
O=C(c1ccco1)N1CCN(c2ncnc3c2[nH]c2ccc(Br)cc23)CC1	label 1
CCN(Cc1cc(=O)oc2cc(C)ccc12)c1ccccc1	label 0
O=C1CC(c2ccco2)CC(O)=C1C=NCCN1CCN(C(=O)Nc2ccc(Cl)cc2)CC1 (stereo not given)	label 0
CCOC(=O)C1(Cc2ccccc2)CCN(Cc2cccn2-c2cccnc2)CC1	label 0
COc1cc(OC)cc(C(=O)Nc2nnc(SCC(=O)NCc3ccco3)s2)c1	label 0
COc1ccc(-c2cnc(SCC(=O)Nc3ccc4c(c3)OCO4)n2Cc2ccco2)cc1	label 0

Okay, now this compound:
Can you look up the reported call for `COc1cc(/C=C(\C#N)c2ccccn2)ccc1OCC(=O)Nc1cccc(C(F)(F)F)c1` for me?
label 0

Data provenance: PubChem BioAssay AID1347131
